Origin of measurements: ChEMBL document CHEMBL1201862

Tested on: MOLT-4
Experiment: NCI tumour cell line growth inhibition, 48 h
Active and inactive are the calls of the source. Rule as the data show it: active = GI50 up to about 1.1 µM and inactive = higher.
Entry note: the call must match one of Yes (active), No (inactive)

Exercise: I'd appreciate the recorded outcome for Cc1cc2ncc3c(=O)n(NS(=O)(=O)c4ccc(N)cc4)ccc3n2n1 from this test.
Key: No

Exercise: // repeat for O=C1c2ccccc2C(=O)N1/N=C\c1ccc(Br)cc1 and report
Key: No

Exercise: Moving on to Cc1ccc(S(=O)(=O)NC(CCC(=O)NN)C(=O)NN)cc1 (configuration not stated)
Key: No

Exercise: Note, next up: C=C1C(=O)O[C@@H]2/C=C(\C)CC/C=C(\C)CC[C@@]12O
Key: No

Exercise: Now the same for COC1(OC)CCN(Cc2ccccc2)C1=O
Key: No

Exercise: Please do the same for Cc1ccc2c(c1)C1(C)OC(CC(N)C1O)O2 (configuration not stated) as well.
Key: No

Exercise: Also, CC(=O)O[C@H]1CCC2[C@@H]3CCC4Nc5oncc5C[C@]4(C)C3CC[C@@]21C (some centres not stated) please.
Key: No

Exercise: Another compound: NC(=O)NOCC1NC(=O)NC1=O (configuration not stated)
Key: No

Exercise: Queued: C=CCN1C[C@H](C)N([C@H](c2ccc(C(=O)N(CC)CCO)cc2)c2cccc(OC)c2)C[C@H]1C
Key: No

Exercise: Then COc1ccc2nc(-c3ccccc3)c(=O)[nH]c2c1 ?
Key: No

Exercise: Record: COc1ccc(Cc2c(=O)[nH]nc3ccccc23)cc1
Key: No

Exercise: And what about the compound Clc1ccc(CSCCc2ccncc2)cc1Cl ?
Key: No

Exercise: // repeat for CC(C)(O)CCc1ccc(O)c2c(=O)c3c(O)c4c(cc3oc12)O[C@H]1OC=C[C@@]41O [AUSTOCYSTIN D] and report
Key: Yes

Exercise: Next: C=CCn1c(=O)c(C(=O)NC(=O)OCC)cn(C2CCCCC2)c1=O
Key: No

Exercise: Item: O=S(=O)(O)CS(=O)(=O)OCCCl
Key: No

Exercise: And then Cc1cc(C)c(P2C(=C(O[Si](C(C)C)(C(C)C)C(C)C)C(C)(C)C)C2(c2ccccc2)c2ccccc2)c(C)c1 (configuration not stated) , what is it?
Key: No

Exercise: What do you have for NC1CC(=O)c2ccccc21 (configuration not stated) ?
Key: No
